Test system: DNA aptamer or structured DNA CTTACGACCACCATGGGAATCGGGTGGCTTGGAGGTGCGTCGTAAG
recorded conditions: 10 mM Tris-HCl, pH 7.4
measured attribute: binding call; further: call rule not given here

Guide cases for binding call, answers given:
compound: CCN(CC)CCOC(=O)c1ccc(N)cc1
binding call: binds

compound: CN[C@@H](C)[C@@H](O)c1ccccc1
binding call: binds

compound: COC(=O)[C@@H]1C2CCC(C[C@@H]1OC(=O)c1ccccc1)N2C (some centres undefined)
binding call: no binding

compound: CC(=O)Oc1ccc2c3c1O[C@H]1[C@@H](OC(C)=O)C=C[C@H]4[C@@H](C2)N(C)CC[C@@]341
binding call: binds

Q: What value of binding call has been recorded for this entry: C=C[C@H]1CN2CC[C@@H]1C[C@H]2[C@H](O)c1ccnc2ccc(OC)cc12
Result: binds

Q: Please report the recorded binding call for CN[C@@H](C)Cc1ccccc1 .
Result: binds

Q: Bench note: what binding call did CC(=O)Nc1ccc(O)cc1 show?
Result: no binding

Q: Reported binding call for COc1ccc2c(c1OC)C(=O)O[C@@H]2[C@H]1c2c(cc3c(c2OC)OCO3)CCN1C : what is it?
Result: binds

Q: Consider the compound Cn1c(=O)c2c(ncn2C)n(C)c1=O and give its measured binding call.
Result: no binding

###

System: DNA aptamer or structured DNA GGGACGACAGGGATTCGGTCTTGGAACAAAGGGGCCTCGTCTGTCGTCCC
recorded conditions: 10 mM Tris-HCl, pH 7.4
measured attribute: binding call; further: call rule not given here

molecule: NCC(O)c1ccc(O)c(O)c1 (stereo unspecified)
experimental system: DNA aptamer or structured DNA GGGACGACAGGGATTCGGTCTTGGAACAAAGGGGCCTCGTCTGTCGTCCC
binding call: no binding
--
molecule: NCCc1ccc(O)c(O)c1
experimental system: DNA aptamer or structured DNA GGGACGACAGGGATTCGGTCTTGGAACAAAGGGGCCTCGTCTGTCGTCCC
binding call: no binding
--
molecule: NCCc1c[nH]c2ccc(O)cc12
experimental system: DNA aptamer or structured DNA GGGACGACAGGGATTCGGTCTTGGAACAAAGGGGCCTCGTCTGTCGTCCC
binding call: no binding
--
molecule: Oc1ccc2c3c1OC1C(O)C=CC4C(C2)NCCC341 (stereo unspecified)
experimental system: DNA aptamer or structured DNA GGGACGACAGGGATTCGGTCTTGGAACAAAGGGGCCTCGTCTGTCGTCCC
binding call: no binding
--
molecule: NCC(=O)O
experimental system: DNA aptamer or structured DNA GGGACGACAGGGATTCGGTCTTGGAACAAAGGGGCCTCGTCTGTCGTCCC
binding call: no binding

Q: Entry C=C[C@H]1CN2CC[C@@H]1C[C@H]2[C@H](O)c1ccnc2ccc(OC)cc12 : reported binding call = ?
Result: no binding

Q: I have this molecule here, CN1CC[C@]23c4c5ccc(O[C@@H]6O[C@H](C(=O)O)[C@@H](O)[C@H](O)[C@H]6O)c4O[C@H]2[C@@H](O)C=C[C@H]3[C@H]1C5 , and I need its recorded binding call.
Result: binds

Q: Which measured binding call value corresponds to CN(C)CCOC(c1ccccc1)c1ccccc1 ?
Result: no binding

Q: Query: binding call; subject: CCN(CC)CC(=O)Nc1c(C)cccc1C; further: call rule not given here
Result: no binding

Q: Query (molecule): CCN(CC)CCOC(=O)c1ccc(N)cc1 ; field requested: binding call; further: call rule not given here
Result: no binding

Q: // query binding call value for entry CN1CC[C@]23c4c5ccc(O)c4O[C@H]2[C@@H](O[C@@H]2O[C@H](C(=O)O)[C@@H](O)[C@H](O)[C@H]2O)C=C[C@H]3[C@H]1C5
Result: binds

###

Test system: DNA aptamer or structured DNA CTTACGACTAGGTGTGGGTCGGCTGCTTTCGCAGGGTAGTCGTAAG
recorded conditions: 10 mM Tris-HCl, pH 7.4
measured attribute: pKd
Just the number, please; pKd means minus log10 of the concentration in mol/L.

Q: # value lookup — system DNA aptamer or structured DNA CTTACGACTAGGTGTGGGTCGGCTGCTTTCGCAGGGTAGTCGTAAG, readout pKd, item COC(=O)[C@@H]1C2CCC(C[C@@H]1OC(=O)c1ccccc1)N2C (stereo partly specified)
Result: 6.46

###

Test system: DNA aptamer or structured DNA CTTACGACGAGCATCGGTTTTTTCGGTGATGTCTGGGAGTCGTAAG
recorded conditions: 10 mM Tris-HCl, pH 7.4
measured attribute: binding call; further: call rule not given here

molecule: C=C[C@H]1CN2CC[C@@H]1C[C@H]2[C@H](O)c1ccnc2ccc(OC)cc12
experimental system: DNA aptamer or structured DNA CTTACGACGAGCATCGGTTTTTTCGGTGATGTCTGGGAGTCGTAAG
data value: no binding

molecule: CC(=O)Nc1ccc(O)cc1
experimental system: DNA aptamer or structured DNA CTTACGACGAGCATCGGTTTTTTCGGTGATGTCTGGGAGTCGTAAG
data value: no binding

molecule: CN(C)CCOC(c1ccccc1)c1ccccc1
experimental system: DNA aptamer or structured DNA CTTACGACGAGCATCGGTTTTTTCGGTGATGTCTGGGAGTCGTAAG
data value: no binding

molecule: CCN(CC)CC(=O)Nc1c(C)cccc1C
experimental system: DNA aptamer or structured DNA CTTACGACGAGCATCGGTTTTTTCGGTGATGTCTGGGAGTCGTAAG
data value: no binding

molecule: COc1ccc(Cc2nccc3cc(OC)c(OC)cc23)cc1OC
experimental system: DNA aptamer or structured DNA CTTACGACGAGCATCGGTTTTTTCGGTGATGTCTGGGAGTCGTAAG
data value: binds

molecule: CN(C)CCCN1c2ccccc2Sc2ccc(Cl)cc21
experimental system: DNA aptamer or structured DNA CTTACGACGAGCATCGGTTTTTTCGGTGATGTCTGGGAGTCGTAAG
data value: no binding

Okay, now this molecule:
Q: Form field: reported binding call of COC(=O)[C@@H]1C2CCC(C[C@@H]1OC(=O)c1ccccc1)N2C (some centres undefined)
Result: no binding

###

System: DNA aptamer or structured DNA TTCAAATCTAGCGCAGGTAGGGGTGTAGGCGTGGGGGTAAGTCTAGATTTGAA
recorded conditions: 10 mM Tris-HCl, pH 7.4
measured attribute: pKd
Answer as the number alone; pKd is minus log10 of concentration in mol/L.

Q: May I ask what pKd has been recorded for CC(C)[C@H](NC(=O)c1nn(Cc2ccc(F)cc2)c2ccccc12)C(N)=O ?
Result: 7.28

###

System: DNA aptamer or structured DNA GGGACGACCGGCTGTCTGGATGCATTGCGCCGGGAACTCGGACGGATGGTCGTCCC
recorded conditions: 10 mM Tris-HCl, pH 7.4
measured attribute: binding call; further: call rule not given here

Answered cases to consult:
molecule: O=C(O)Cc1ccc(O)c(O)c1
binding call: no binding
--
molecule: CC(N)Cc1ccccc1 (stereo not drawn)
binding call: no binding
--
molecule: CNC(C)Cc1ccc(O)cc1 (stereo not drawn)
binding call: binds
--
molecule: CC(NC(C)(C)C)C(=O)c1cccc(Cl)c1 (stereo not drawn)
binding call: binds
--
molecule: NCCc1ccc(O)c(O)c1
binding call: binds

Q: Which measured binding call value corresponds to NCC(O)c1ccc(O)c(O)c1 (stereo not drawn) ?
Result: no binding

Q: Look at this molecule and give its reported binding call. N[C@@H](Cc1ccc(O)cc1)C(=O)O
Result: no binding

Q: So what's the measured binding call for this one? N[C@@H](Cc1ccccc1)C(=O)O
Result: no binding

###

System: DNA aptamer or structured DNA CTTACGACTTTGGTTTCCTCGATTCGCATGGGTGGTAAGTCGTAAG
recorded conditions: 10 mM Tris-HCl, pH 7.4
measured attribute: Kd (nM)
Only the number, expressed in nM, is required.

Q: So what does the record say about Kd for COC(=O)[C@@H]1C2CCC(C[C@@H]1OC(=O)c1ccccc1)N2C (stereo partly specified) ?
Result: 239

###

Test system: DNA aptamer or structured DNA GGGACGACAGGGCACGTCTCGGCATCGAGGGTTTCGCGGTCGTCCC
recorded conditions: 10 mM Tris-HCl, pH 7.4
measured attribute: pKd
The meaning of pKd here: minus log10 of the concentration in molar units.

Q: For the record CC(=O)Oc1ccc2c3c1O[C@H]1[C@@H](OC(C)=O)C=C[C@H]4[C@@H](C2)N(C)CC[C@@]341 , what value of pKd is listed for DNA aptamer or structured DNA GGGACGACAGGGCACGTCTCGGCATCGAGGGTTTCGCGGTCGTCCC?
Result: 5.32

###

System: DNA aptamer or structured DNA GGGACGACATCGTAGGGGCACACGCTTAACGGGCTGATGTCGTCCC
recorded conditions: 10 mM Tris-HCl, pH 7.4
measured attribute: pKd
Notebook: values listed as pKd are -log10 of the concentration (mol/L).

Q: Value lookup for pKd; key = COc1ccc2c3c1O[C@H]1C(=O)CC[C@@]4(O)[C@@H](C2)N(C)CC[C@]314
Result: 5.85
